- MEASUREMENT TARGET: T1, hFc tagged monkey LAG-3 protein (cLAG-3-hFc protein) (monkey; human)
- T1 construct: Made in HEK293 cells; also called monkey LAG-3 extracellular domain protein; not shown: human IgG Fc fragment (hFc) of the pCpC vector
- T1 chain: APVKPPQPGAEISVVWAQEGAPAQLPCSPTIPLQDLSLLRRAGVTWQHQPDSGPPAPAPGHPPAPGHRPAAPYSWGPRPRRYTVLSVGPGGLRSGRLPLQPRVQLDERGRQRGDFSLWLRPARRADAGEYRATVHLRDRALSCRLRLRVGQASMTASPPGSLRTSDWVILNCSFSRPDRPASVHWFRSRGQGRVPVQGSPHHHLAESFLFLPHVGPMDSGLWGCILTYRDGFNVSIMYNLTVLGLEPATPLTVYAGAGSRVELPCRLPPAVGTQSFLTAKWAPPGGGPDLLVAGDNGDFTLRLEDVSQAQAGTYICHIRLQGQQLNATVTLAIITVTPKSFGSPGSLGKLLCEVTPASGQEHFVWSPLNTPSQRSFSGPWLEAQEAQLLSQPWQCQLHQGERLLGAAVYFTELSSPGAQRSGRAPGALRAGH
- ASSAY EXPLANATION: ELISA, cLAG-3-hFc coated; 0.0001 nM
ATTRIBUTE MEASURED: OD450 (OD450)
Answers are plain numbers, in OD450.

Example results:
409D4E10 (LAG-3 mouse-human chimeric antibody) (antibody, V domains shown) VH: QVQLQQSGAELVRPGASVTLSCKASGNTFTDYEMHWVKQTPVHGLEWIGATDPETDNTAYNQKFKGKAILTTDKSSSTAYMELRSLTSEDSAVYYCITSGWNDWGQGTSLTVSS VL: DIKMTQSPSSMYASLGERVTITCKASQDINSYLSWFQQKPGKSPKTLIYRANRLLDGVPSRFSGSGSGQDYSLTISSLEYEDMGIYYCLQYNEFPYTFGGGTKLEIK: 0.19
105F1E10 (LAG-3 mouse-human chimeric antibody) (antibody, V domains shown) VH: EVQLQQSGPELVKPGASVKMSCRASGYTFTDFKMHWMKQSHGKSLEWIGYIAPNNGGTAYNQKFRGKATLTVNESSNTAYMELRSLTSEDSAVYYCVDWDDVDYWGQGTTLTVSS VL: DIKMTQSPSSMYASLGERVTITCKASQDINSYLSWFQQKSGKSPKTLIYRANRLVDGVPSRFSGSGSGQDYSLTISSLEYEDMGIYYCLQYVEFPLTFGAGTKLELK: 0.14
409B11E12 (LAG-3 mouse-human chimeric antibody) (antibody, V domains shown) VH: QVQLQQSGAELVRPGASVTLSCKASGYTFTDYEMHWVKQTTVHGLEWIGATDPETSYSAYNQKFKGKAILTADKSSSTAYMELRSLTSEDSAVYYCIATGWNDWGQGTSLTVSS VL: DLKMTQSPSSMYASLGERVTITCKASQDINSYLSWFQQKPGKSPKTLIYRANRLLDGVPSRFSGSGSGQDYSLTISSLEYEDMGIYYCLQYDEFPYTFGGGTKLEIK: 0.14
556F6B8 (LAG-3 mouse-human chimeric antibody) (antibody, V domains shown, also called 556F8B8) VH: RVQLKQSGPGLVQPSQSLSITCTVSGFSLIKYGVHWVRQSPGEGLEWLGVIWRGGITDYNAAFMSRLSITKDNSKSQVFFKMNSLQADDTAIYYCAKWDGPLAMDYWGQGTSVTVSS VL: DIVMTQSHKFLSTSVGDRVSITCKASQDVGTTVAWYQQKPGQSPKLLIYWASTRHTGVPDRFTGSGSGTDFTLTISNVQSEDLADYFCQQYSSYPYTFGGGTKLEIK: 0.18

In the following, a different binder is considered.
Please report the measured OD450 for 405B8H3 (LAG-3 mouse-human chimeric antibody) (antibody, V domains shown, also called mouse-human chimeric antibody 405B8H3) VH: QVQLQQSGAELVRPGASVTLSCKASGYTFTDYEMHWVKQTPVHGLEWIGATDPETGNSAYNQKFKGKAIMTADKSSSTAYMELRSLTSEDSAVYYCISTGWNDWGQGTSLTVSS VL: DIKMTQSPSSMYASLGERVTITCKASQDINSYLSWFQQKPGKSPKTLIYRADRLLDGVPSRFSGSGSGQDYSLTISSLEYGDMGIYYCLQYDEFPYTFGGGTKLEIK
0.15
